Sourced from patent EP0369810A2

experiment: Acute toxicities; conditions: rat, in vivo, po
MEASURED_METRIC: LD50

Incoming: Looking for the measured LD50 of COc1cc2c(cc1OC)CCCC(C(=O)N1CCN(C(=O)c3cc(OC)c(OC)c(OC)c3)CC1)=C2 [Compd [IV]] , can you help?
Outgoing: > 1000 mg/kg

----------
Assay: Acute toxicities
Conditions: rat, in vivo, iv; male Wistar rats
Description: PAF antagonists were administered to male Wistar rats (4-6 weeks old) to observe the acute toxicities.
Provide the reported LD50 of each item.

Incoming: Looking for the measured LD50 of CCCCCCCCCCCCCCCCCCNC(=O)OCC(COC(=O)N(Cc1cccc[n+]1CC)C(C)=O)OC.[Cl-] (centres unmarked) [Compd [II]] , can you help?
Outgoing: > 20 mg/kg

Incoming: Same lookup for CCCCCCCCCCCCCCCCCCNC(=O)OCC(COP(=O)([O-])OCC[n+]1ccsc1)OC (centres unmarked) [Compd [VI]] , please.
Outgoing: > 50 mg/kg
